Molecular target: T1, human CD3 on CD3+ Jurkat cells (human, UniProt P07766 23-207)
T1 construct: whole, on cells; Native CD3 complex on cells; the other CD3 chains are not specified for this assay; also called Human CD3+ Jurkat
T1 sequence (P07766 23-207): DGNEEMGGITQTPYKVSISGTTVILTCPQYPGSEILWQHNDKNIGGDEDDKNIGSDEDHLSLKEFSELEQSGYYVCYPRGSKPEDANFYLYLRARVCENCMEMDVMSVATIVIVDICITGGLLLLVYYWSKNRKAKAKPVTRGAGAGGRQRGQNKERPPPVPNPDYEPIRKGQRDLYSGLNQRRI
Assay: flow cytometry on CD3+ Jurkat cells, ratio of MFI at pH 6.0 to pH 7.4
Procedure: Specificity of the anti-CD3 antibodies for human CD3+ Jurkat cells compared to CHO-S cells at pH 6.0 and 7.4 was determined using a FACS cell binding assay. Briefly, CD3+ human Jurkat cells and CHO-S cells were thawed and washed with cold PBSF buffer, pH 7.4 (PBS+0.1% BSA, pH 7.4). About 200,000 cells were aliquoted per well of a 96-well plate and pelleted by centrifugation (5 minutes at 500×g). […] Binding was analyzed on FACS Canto II. Cell binding assays. […] Binding was analyzed on FACS Canto II.
recordedEndpoint: MFI pH 6.0/MFI pH 7.4
No unit in the answer, only the number.

Before answering, review these 5 worked examples.
| binder | endpointValue |
| --- | --- |
| SAD10318_P04_B11 (ADI-48614) (antibody, V domains shown, IgG; also called Ab217) VH: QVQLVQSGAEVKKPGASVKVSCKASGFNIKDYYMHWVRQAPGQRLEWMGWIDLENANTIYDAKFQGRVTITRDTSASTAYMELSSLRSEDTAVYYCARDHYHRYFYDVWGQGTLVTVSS VL: DIVMTQSPDSLAVSLGERATINCKSSQSLLNAHTGKNHLAWYQQKPGQPPKLLIYWASTRESGVPDRFSGSGSGTDFTLTISSLQAEDVAVYYCKQSYSRRTFGGGTKVEIK | 2.6 |
| SAD10318_P02_D05 (ADI-48598) (antibody, V domains shown, IgG; also called Ab181) VH: QVQLVQSGAEVKKPGASVKVSCKASGFNIKDYYMHWVRQAPGQRLEWMGWIDLENANTIYDAKFQGRVTITRDTSASTAYMELSSLRSEDTAVYYCARDHYGHYFYDVWGQGTLVTVSS VL: DIVMTQSPDSLAVSLGERATINCKSSQSLLNARTGKNHLAWYQQKPGQPPKLLIYWASTRESGVPDRFSGSGSGTDFTLTISSLQAEDVAVYYCKQSYHHRTFGGGTKVEIK | 8.6 |
| LAD9965_P01_H07 (ADI-48666) (antibody, V domains shown, IgG; also called Ab177) VH: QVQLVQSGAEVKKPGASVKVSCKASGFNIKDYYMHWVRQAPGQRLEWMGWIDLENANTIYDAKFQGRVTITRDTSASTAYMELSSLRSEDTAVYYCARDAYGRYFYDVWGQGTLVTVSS VL: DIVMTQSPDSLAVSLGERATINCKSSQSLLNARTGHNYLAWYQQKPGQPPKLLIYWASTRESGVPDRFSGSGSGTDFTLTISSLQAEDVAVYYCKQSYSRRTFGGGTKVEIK | 1.2 |
| SAD10318_P02_G04 (ADI-48593) (antibody, V domains shown, IgG; also called Ab158) VH: QVQLVQSGAEVKKPGASVKVSCKASGFNIKDYYMHWVRQAPGQRLEWMGWIDLENANTIYDAKFQGRVTITRDTSASTAYMELSSLRSEDTAVYYCARDAYGHYHYDVWGQGTLVTVSS VL: DIVMTQSPDSLAVSLGERATINCKSSQSLLHARTGKNYLAWYQQKPGQPPKLLIYWASTRESGVPDRFSGSGSGTDFTLTISSLQAEDVAVYYCKQSYHHRTFGGGTKVEIK | 39.4 |
| SAD10320_P02_C04 (ADI-48648) (antibody, V domains shown, IgG; also called Ab71) VH: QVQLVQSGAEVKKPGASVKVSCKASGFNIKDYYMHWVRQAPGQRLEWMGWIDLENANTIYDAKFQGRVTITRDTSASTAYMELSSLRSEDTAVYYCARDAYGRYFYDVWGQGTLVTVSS VL: DIVMTQSPDSLAVSLGERATINCKSSQSLLNARTGKNYLAWYQQKPGQPPKLLIYWASTRESGVPDRFSGSGSGTDFTLTISSLQAEDVAVYYCKQSHTRRTFGGGTKVEIK | 1.2 |

Look at this binder and give its reported MFI pH 6.0/MFI pH 7.4. SAD10320_P01_F03 (ADI-48647) (antibody, V domains shown, IgG; also called Ab65) VH: QVQLVQSGAEVKKPGASVKVSCKASGFNIKDYYMHWVRQAPGQRLEWMGWIDLENANTIYDAKFQGRVTITRDTSASTAYMELSSLRSEDTAVYYCARDAYPHYFYDVWGQGTLVTVSS VL: DIVMTQSPDSLAVSLGERATINCKSSQSLLNARTGKNYLAWYQQKPGQPPKLLIYWASTRESGVPDRFSGSGSGTDFTLTISSLQAEDVAVYYCKQSYLHRTFGGGTKVEIK
30.9
